Can you tell me Ji, flux of 5-FU through the skin for the items I'm about to list?
# METHOD SUMMARY: Diffusion cell experiments: delivery of 5-FU through hairless mouse skin
# Format: in vitro ADME
# MEASUREMENT CONTEXT: from suspensions of prodrugs in IPM; hairless mouse skin
All answers are understood in mg/cm^2 hour, so give the number only.

Ask: Bench note: what Ji, flux of 5-FU through the skin did CCC(=O)n1cc(F)c(=O)n(C(=O)CC)c1=O show?
Reply: 0.090

Ask: Item under review: CCCCCCCC(=O)n1cc(F)c(=O)[nH]c1=O . Reported Ji, flux of 5-FU through the skin?
Reply: 0.078

Ask: Fill blank: measured Ji, flux of 5-FU through the skin of the compound CCCCOC(=O)n1cc(F)c(=O)[nH]c1=O is ____.
Reply: 0.284

Ask: // lookup Ji, flux of 5-FU through the skin for CCC(=O)n1cc(F)c(=O)[nH]c1=O
Reply: 0.560

Ask: Please report the recorded Ji, flux of 5-FU through the skin for CCCCCCOC(=O)n1cc(F)c(=O)[nH]c1=O .
Reply: 0.195

Ask: Query: Ji, flux of 5-FU through the skin; subject: CCCC(=O)n1cc(F)c(=O)n(C(=O)CCC)c1=O
Reply: 0.127

Ask: Which Ji, flux of 5-FU through the skin value belongs to CCCCC(=O)n1cc(F)c(=O)n(C(=O)CCCC)c1=O ?
Reply: 0.124

Ask: Tell me the measured Ji, flux of 5-FU through the skin of O=c1[nH]cc(F)c(=O)[nH]1 , please.
Reply: 0.0311

Ask: Entry CC(=O)n1c(=O)[nH]cc(F)c1=O : reported Ji, flux of 5-FU through the skin = ?
Reply: 0.575

Ask: Please report the recorded Ji, flux of 5-FU through the skin for CCCCCCCCOC(=O)n1cc(F)c(=O)[nH]c1=O .
Reply: 0.037

Ask: Fill in: Ji, flux of 5-FU through the skin of CCCOC(=O)n1cc(F)c(=O)[nH]c1=O is ___
Reply: 0.294

Ask: Suppose we examine the compound CC(=O)n1cc(F)c(=O)[nH]c1=O ; what Ji, flux of 5-FU through the skin value has been reported?
Reply: 1.213

Ask: Record request: Ji, flux of 5-FU through the skin value, item CCCCC(=O)n1c(=O)[nH]cc(F)c1=O
Reply: 0.071

Ask: // returns reported Ji, flux of 5-FU through the skin for input CC(=O)n1cc(F)c(=O)n(C(C)=O)c1=O
Reply: 0.291

Ask: Request the reported Ji, flux of 5-FU through the skin associated with CCCCC(=O)n1cc(F)c(=O)[nH]c1=O
Reply: 0.133

Ask: Can you share its Ji, flux of 5-FU through the skin? I mean this compound: COC(=O)n1cc(F)c(=O)[nH]c1=O
Reply: 0.343

Ask: Value lookup for Ji, flux of 5-FU through the skin; key = CCCC(=O)n1cc(F)c(=O)[nH]c1=O
Reply: 0.168

Ask: # input compound: CCOC(=O)n1cc(F)c(=O)[nH]c1=O ; wanted: its Ji, flux of 5-FU through the skin
Reply: 0.770
